Target: androgen receptor (AR) (Homo sapiens, UniProt P10275, T878A)
Construct: endogenous in cells
Test: Androgen-induced PSA-luciferase assay, Luciferase Assay A (LNCaP transiently transfected with PSA (6.1 kb)-luciferase reporter)
Settings: LNCaP cells, 1 h pretreatment, R1881 (1 nM) 24 h, read-out: PSA-Luc IC50 Range
Experimental: The PSA (6.1 kb)-luciferase reporter contains functional AREs (androgen response elements) to which AR binds in response to androgen to induce luciferase activity. […] After 24 h of incubation with R1881, the cells were harvested, and relative luciferase activities were determined (FIG. 1). […]
METRIC: IC50

Could you share which IC50 value was measured for CC(C)(c1ccc(OCc2ccnc(NS(C)(=O)=O)n2)cc1)c1cc(Cl)c(OCCN2C(=O)CCCC2=O)c(C#N)c1 [Compound A180] ?
> 2 µM

Param item = CC(C)(c1cc(Cl)c(OCCCl)c(C#N)c1)c1ccc(OCc2ccnc(NS(C)(=O)=O)n2)c(CN2CCNCC2)c1 [Compound A113] ; retrieve measured IC50.
> 2 µM

---
So what does the record say about IC50 for CS(=O)(=O)Nc1cnc2cc(-c3ccc(Oc4cc(F)c(OCCCl)c(C#N)c4)cc3)ccc2n1 [Compound A155] ?
0.5 to 2 µM

###

Give measured IC50 for each item. Keep answers brief.
Target: UniProt:P10275
Sequence (P10275 1-920 T878A): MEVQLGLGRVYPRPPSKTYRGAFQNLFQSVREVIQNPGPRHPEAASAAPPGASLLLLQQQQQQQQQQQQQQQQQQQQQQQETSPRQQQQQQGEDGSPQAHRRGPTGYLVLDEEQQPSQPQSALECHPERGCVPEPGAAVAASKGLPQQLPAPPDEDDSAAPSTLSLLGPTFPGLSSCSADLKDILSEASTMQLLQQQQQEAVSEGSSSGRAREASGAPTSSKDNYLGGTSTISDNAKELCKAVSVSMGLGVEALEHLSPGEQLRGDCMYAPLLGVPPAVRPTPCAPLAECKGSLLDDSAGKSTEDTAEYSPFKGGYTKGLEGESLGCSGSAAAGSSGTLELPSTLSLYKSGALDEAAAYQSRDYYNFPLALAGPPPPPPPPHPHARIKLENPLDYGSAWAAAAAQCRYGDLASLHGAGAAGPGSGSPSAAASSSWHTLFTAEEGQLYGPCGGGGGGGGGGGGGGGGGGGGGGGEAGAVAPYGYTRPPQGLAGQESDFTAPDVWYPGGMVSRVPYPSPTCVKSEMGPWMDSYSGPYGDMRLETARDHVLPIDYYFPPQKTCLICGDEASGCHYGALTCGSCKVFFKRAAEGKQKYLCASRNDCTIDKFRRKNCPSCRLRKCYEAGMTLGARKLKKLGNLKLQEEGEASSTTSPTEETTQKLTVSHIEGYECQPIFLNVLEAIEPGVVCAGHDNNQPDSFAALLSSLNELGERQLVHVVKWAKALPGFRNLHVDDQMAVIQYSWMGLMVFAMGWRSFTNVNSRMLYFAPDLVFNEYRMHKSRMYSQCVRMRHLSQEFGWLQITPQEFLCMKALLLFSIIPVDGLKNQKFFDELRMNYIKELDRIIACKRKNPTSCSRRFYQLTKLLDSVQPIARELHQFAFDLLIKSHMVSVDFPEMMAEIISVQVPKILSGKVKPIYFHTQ
Assay: Androgen-induced PSA-luciferase assay, Luciferase Assay B (cells stably expressing ARR2PB or PSA-firefly luciferase reporter, 384-well)
Conditions: Luciferase Assay B (Compounds A186-A219 and A221-A245); stable luciferase reporter cells, 1 h pretreatment, R1881 24 h, serum-free; read-out: PSA-Luc IC50 Range

The following compounds have reported results that may help.
Recorded IC50 for CS(=O)(=O)NC12CC(COc3ccc(N(CC(F)(F)F)c4cnc(NC5CC5)c(C#N)c4)cc3)(C1)C2 [Compound A235] , please?
> 2000 nM

Look at this compound and give its reported IC50. [2H]C([2H])([2H])N(c1ccc(-c2ccc3nc(NS(C)(=O)=O)cnc3c2)cc1)c1cc(Cl)c(OC2CC2)c(C#N)c1 [Compound A187]
500 to 2000 nM

// IC50 lookup, key: CS(=O)(=O)NCc1cnc(-c2ccc(Oc3cc(Cl)c(OC4CC4)c(C#N)c3)cc2)cn1 [Compound A213]
500 to 2000 nM

Okay, here is my list. What is IC50 for each of these?
1. CN(c1ccc(OCc2ccnc(NS(C)(=O)=O)n2)cc1)c1cc(Cl)c(OC2CC2)c(C#N)c1 [Compound A237]
2. CC(C)(c1ccc(-c2cnc(NS(C)(=O)=O)nc2)cc1)c1cc(Cl)c(OC2CC2)c(C#N)c1 [Compound A197]

1: 500 to 2000 nM; 2: 500 to 2000 nM
